Value source: patent EP4786492A1

system.under.test: mouse DLL3 on CHO-K1-mDLL3 cells (mouse) (UniProt O88516)
Sequence (O88516 other isoform, or with tags, fused parts or gaps limits assumed): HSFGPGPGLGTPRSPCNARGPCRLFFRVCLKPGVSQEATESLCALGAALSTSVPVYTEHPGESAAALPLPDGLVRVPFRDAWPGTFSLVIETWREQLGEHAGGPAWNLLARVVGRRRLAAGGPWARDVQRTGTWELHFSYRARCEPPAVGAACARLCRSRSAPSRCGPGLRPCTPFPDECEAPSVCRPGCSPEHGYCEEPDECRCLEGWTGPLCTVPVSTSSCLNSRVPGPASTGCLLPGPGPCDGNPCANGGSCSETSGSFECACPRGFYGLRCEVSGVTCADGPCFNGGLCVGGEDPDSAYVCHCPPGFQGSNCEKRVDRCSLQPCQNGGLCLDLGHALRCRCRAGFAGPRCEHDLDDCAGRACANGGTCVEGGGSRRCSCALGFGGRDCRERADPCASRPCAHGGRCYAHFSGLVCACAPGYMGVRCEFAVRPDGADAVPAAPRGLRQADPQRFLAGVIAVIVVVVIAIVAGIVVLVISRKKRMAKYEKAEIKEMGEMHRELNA
method: FACS, CHO-K1-mDLL3 cells, 4 nM antibody
The entries below are paired with their reported MFI.

1. Hab009VL3aVH1-hFc (scFv, part only; not given: VL-VH linker and human IgG1 Fc, V domains shown, not shown: another chain or arm of the molecule; a dimerising Fc or GST; small tags and cut ends) VL: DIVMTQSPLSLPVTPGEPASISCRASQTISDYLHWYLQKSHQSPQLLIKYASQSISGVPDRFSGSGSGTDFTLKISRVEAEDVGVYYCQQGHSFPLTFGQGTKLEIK VH: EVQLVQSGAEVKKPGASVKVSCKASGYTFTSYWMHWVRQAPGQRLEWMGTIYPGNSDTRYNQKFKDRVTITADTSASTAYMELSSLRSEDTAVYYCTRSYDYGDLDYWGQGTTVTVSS = 458 MFI
2. Hab015VL4VH1b-hFc (scFv, part only; not given: VL-VH linker and human IgG1 Fc, V domains shown, not shown: another chain or arm of the molecule; a dimerising Fc or GST; small tags and cut ends) VL: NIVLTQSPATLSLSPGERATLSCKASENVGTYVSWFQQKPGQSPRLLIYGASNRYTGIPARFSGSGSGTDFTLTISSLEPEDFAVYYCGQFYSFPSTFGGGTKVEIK VH: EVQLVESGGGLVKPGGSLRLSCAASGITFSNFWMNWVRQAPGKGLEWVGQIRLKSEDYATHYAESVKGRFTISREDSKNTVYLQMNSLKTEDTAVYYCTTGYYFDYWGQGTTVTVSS = 1120 MFI

Prompt: Please indicate MFI recorded for Hab006VL4VH1-hFc (scFv, part only; not given: scFv linker and human IgG1 Fc, V domains shown, not shown: another chain or arm of the molecule; a dimerising Fc or GST; small tags and cut ends) VL: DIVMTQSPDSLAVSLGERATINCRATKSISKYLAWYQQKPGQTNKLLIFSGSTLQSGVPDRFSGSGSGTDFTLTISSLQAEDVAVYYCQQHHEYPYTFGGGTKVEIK VH: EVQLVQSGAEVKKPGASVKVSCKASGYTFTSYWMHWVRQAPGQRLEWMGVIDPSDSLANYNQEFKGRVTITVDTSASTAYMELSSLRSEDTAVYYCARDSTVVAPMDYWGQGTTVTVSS
Completion: 485 MFI
